# key: entry, value: kinase still bound, per cent of control
# MEASUREMENT_TARGET: MAST1 (human) (UniProt Q9Y2H9)
# Sequence (Q9Y2H9 whole entry, looked up): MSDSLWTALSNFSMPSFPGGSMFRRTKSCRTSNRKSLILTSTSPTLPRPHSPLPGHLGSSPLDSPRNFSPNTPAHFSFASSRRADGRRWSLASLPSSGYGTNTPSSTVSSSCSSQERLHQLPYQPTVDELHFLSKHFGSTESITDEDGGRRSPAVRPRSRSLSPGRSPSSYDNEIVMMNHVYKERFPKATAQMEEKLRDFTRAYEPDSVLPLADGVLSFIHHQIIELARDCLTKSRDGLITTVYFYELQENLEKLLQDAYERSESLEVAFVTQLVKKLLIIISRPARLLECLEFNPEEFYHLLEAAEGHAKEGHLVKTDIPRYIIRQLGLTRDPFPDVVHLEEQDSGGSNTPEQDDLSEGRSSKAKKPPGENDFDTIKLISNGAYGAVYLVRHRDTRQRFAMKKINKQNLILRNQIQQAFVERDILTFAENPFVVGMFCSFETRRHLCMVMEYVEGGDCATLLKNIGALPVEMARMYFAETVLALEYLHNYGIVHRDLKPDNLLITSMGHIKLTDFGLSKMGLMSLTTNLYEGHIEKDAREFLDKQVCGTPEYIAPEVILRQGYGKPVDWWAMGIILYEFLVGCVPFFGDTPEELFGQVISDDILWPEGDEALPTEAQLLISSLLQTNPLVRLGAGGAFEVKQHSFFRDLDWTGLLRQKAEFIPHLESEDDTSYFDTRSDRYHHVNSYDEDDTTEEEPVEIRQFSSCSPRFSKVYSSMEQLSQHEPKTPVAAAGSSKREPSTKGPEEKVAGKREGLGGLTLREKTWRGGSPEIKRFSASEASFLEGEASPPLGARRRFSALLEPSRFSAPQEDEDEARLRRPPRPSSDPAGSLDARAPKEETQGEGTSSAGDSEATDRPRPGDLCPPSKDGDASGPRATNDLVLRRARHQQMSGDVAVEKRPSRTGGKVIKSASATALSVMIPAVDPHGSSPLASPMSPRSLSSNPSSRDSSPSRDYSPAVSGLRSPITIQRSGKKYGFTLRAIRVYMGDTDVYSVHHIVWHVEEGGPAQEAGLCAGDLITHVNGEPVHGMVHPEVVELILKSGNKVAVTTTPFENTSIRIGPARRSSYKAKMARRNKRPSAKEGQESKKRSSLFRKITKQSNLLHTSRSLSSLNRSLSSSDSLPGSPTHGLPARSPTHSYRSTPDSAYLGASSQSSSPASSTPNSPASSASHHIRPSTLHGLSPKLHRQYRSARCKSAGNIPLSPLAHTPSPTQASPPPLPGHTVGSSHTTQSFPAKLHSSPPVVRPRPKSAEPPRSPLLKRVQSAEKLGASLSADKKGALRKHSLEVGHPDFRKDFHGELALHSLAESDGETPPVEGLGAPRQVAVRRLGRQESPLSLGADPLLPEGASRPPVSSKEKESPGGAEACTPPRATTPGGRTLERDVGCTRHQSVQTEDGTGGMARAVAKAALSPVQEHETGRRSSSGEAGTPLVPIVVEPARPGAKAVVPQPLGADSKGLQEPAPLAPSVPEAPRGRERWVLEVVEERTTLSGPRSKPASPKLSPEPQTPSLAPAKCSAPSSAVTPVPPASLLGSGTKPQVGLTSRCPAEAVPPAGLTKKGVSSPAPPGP
# EXPERIMENTAL_PROTOCOL: KINOMEscan competition binding
# CONDITION: compound 10.0 µM
Give your result in % as a bare value.

Here are 2 compounds together with their reported answers.
{"SMI": "O=C1Nc2ccc(I)cc2/C1=C/c1cc(Br)c(O)c(Br)c1", "MEASUREMENT_TARGET": "MAST1 (human) (UniProt Q9Y2H9)", "kinase still bound, per cent of control, %": 100}
{"SMI": "COc1cc(C(=O)NC2CCN(C)CC2)ccc1Nc1ncc2c(n1)N(C1CCCC1)CCC(=O)N2C(C)C", "MEASUREMENT_TARGET": "MAST1 (human) (UniProt Q9Y2H9)", "kinase still bound, per cent of control, %": 100}

Now consider a different compound.
[ask] Consider the compound shown here: `CCC(=O)N1CCN(c2ccc(-n3c(=O)ccc4cnc5ccc(-c6cnc7ccccc7c6)cc5c43)cc2C(F)(F)F)CC1` What is its recorded kinase still bound, per cent of control?
[reply] 93

###

# MEASUREMENT_TARGET: CDK11B (human) (UniProt P21127)
# Sequence (P21127 whole entry, looked up): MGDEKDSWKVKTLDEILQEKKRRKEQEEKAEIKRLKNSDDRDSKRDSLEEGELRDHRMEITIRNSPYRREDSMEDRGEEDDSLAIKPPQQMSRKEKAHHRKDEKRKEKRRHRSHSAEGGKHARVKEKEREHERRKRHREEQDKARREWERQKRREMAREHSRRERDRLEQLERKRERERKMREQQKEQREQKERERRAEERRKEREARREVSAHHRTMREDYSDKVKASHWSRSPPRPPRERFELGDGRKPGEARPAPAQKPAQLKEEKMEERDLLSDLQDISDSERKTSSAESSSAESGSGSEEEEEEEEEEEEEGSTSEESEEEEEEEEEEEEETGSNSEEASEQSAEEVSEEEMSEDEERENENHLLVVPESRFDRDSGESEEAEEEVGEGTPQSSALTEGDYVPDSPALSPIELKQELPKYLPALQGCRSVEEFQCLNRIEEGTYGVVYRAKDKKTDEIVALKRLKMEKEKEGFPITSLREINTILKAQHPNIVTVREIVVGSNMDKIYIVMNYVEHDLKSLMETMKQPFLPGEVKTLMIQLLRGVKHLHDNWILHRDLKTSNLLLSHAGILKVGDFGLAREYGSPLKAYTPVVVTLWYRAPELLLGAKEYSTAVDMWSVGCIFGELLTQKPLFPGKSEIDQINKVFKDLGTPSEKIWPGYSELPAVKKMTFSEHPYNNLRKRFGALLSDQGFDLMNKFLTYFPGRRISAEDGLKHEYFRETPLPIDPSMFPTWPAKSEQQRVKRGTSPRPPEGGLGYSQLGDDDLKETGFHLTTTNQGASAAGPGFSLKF
# EXPERIMENTAL_PROTOCOL: KINOMEscan competition binding
# CONDITION: compound 10.0 µM
# key: entry, value: kinase still bound, per cent of control
Give your result in % as a bare value.

{"MOLECULE": "O=C(NC1CC1)c1cccc(-c2ccc3c(NC(=O)C4CC4)n[nH]c3c2)c1", "kinase still bound, per cent of control (%)": 97}

[ask] Consider the molecule shown here: COc1cc(C(=O)NC2CCN(C)CC2)ccc1Nc1ncc2c(n1)N(C1CCCC1)C(C)CC(=O)N2C (configuration not stated) What is its recorded kinase still bound, per cent of control?
[reply] 100

[ask] And for `Nc1ccc(-c2ccc3ncc4ccc(=O)n(-c5cccc(C(F)(F)F)c5)c4c3c2)cn1` ?
[reply] 100

[ask] And for `CN(C)C/C=C/C(=O)Nc1cccc(Nc2ncc3c(n2)N(C)c2ccccc2C(=O)N3C)c1` ?
[reply] 100

[ask] And for `Cc1ccc(C(=O)Nc2cccc(C(F)(F)F)c2)cc1Nc1cncc(C(N)=O)c1` ?
[reply] 100

[ask] And for `OCCCNc1cc(-c2ccnc(Nc3cccc(Cl)c3)n2)ccn1` ?
[reply] 100

[ask] And for `Cc1ccc2nc(NCCN)c3ncc(C)n3c2c1` ?
[reply] 0.95

###

# MEASUREMENT_TARGET: KIT (human)
# EXPERIMENTAL_PROTOCOL: KINOMEscan competition binding
# CONDITION: compound 10.0 µM
QUANTITY_MEASURED: kinase still bound, per cent of control (%)
Give your result in % as a bare value.

{"SMI": "C[C@@H](Oc1cc(-n2cnc3ccc(CN4CCN(C)CC4)cc32)sc1C(N)=O)c1ccccc1C(F)(F)F", "kinase still bound, per cent of control, %": 47}
{"SMI": "COc1cc(N2CCN(C)CC2)ccc1Nc1nc(N)c(C(=O)c2c(Cl)cccc2Cl)s1", "kinase still bound, per cent of control, %": 100}
{"SMI": "COc1cc(C(=O)NC2CCN(C)CC2)ccc1Nc1ncc2c(n1)N(C1CCCC1)CCC(=O)N2C(C)C", "kinase still bound, per cent of control, %": 100}
{"SMI": "CCCS(=O)(=O)Nc1ccc(F)c(C(=O)c2c[nH]c3ncc(-c4ccc(Cl)cc4)cc23)c1F", "kinase still bound, per cent of control, %": 0.15}
{"SMI": "CN(C)C/C=C/C(=O)Nc1cccc(Nc2ncc3c(n2)N(C)c2ccccc2C(=O)N3C)c1", "kinase still bound, per cent of control, %": 66}

[ask] Consider the compound shown here: `C=CC(=O)Nc1cccc(Nc2nc(N[C@H]3CC[C@H](N(C)C)CC3)nc3c2ncn3C(C)C)c1` What is its recorded kinase still bound, per cent of control?
[reply] 52

[ask] And for `O=C(NOC[C@H](O)CO)c1ccc(F)c(F)c1Nc1ccc(I)cc1F` ?
[reply] 92

[ask] And for `CC[C@@H]1C(=O)N(C)c2cnc(Nc3ccc(C(=O)NC4CCN(C)CC4)cc3OC)nc2N1C1CCCC1` ?
[reply] 100

[ask] And for `OCCCNc1cc(-c2ccnc(Nc3cccc(Cl)c3)n2)ccn1` ?
[reply] 100
